# credit: patent US20220281976A1

# system name: T1, human CD33 Fc fusion protein (human, UniProt P20138 18-259)
# T1 construct: also called hCD33-Fc; human CD33/Fc chimera (R&D Systems)
# T1 sequence (P20138 18-259 limits assumed): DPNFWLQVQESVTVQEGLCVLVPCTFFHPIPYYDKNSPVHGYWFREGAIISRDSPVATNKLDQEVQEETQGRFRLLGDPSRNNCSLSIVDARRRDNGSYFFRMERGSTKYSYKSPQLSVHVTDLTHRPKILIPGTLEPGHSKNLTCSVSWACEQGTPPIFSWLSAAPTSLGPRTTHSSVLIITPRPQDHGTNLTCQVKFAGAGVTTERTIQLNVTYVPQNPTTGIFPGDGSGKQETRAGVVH
# protocol text: ForteBio BLI or MSD-SET, IgG, avid;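 also: Anti-CD33 IgG affinity by BLI, IgG captured on AHQ sensors with antigen in solution and a one-to-one kinetic fit, or by MSD solution equilibrium titration with quadratic fit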
I'd be grateful if you could share measured Kd for these entries.
# value in nM; strip the unit string

Please report the recorded Kd for C-61 (antibody, V domains shown, human IgG1) VH: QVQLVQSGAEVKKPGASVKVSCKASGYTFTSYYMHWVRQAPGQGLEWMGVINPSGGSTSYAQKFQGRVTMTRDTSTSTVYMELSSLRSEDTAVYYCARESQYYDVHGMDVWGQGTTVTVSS VL: EIVLTQSPGTLSLSPGERATLSCRASQSVSSSYLAWYQQKPGQAPRLLIYGASSRATGIPDRFSGSGSGTDFTLTISRLEPEDFAVYYCQQYYGLPLTFGGGTKVEIK .
2.06

And what about the binder C-11 (antibody, V domains shown, human IgG1) VH: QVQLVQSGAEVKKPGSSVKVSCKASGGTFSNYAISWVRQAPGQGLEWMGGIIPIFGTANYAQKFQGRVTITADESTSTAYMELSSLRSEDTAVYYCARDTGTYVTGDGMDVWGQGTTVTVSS VL: EIVMTQSPATLSVSPGERATLSCRASQSVSSNLAWYQQKPGQAPRLLIYSASTRATGIPARFSGSGSGTEFTLTISSLQSEDFAVYYCQQYIVLPITFGGGTKVEIK ?
1.56

C-9 (antibody, V domains shown, human IgG1) VH: QLQLQESGPGLVKPSETLSLTCTVSGGSISSSSYYWGWIRQPPGKGLEWIGSIYYSGSTYYNPSLKSRVTISVDTSKNQFSLKLSSVTAADTAVYYCARESGFAGLDPWGQGTLVTVSS VL: EIVLTQSPGTLSLSPGERATLSCRASQSVSSSFLAWYQQKPGQAPRLLIYGASSRATGIPDRFSGSGSGTDFTLTISRLEPEDFAVYYCQQSEDWPTFGGGTKVEIK ?
1.09

C-75 (antibody, V domains shown, human IgG1) VH: EVQLLESGGGLVQPGGSLRLSCAASGFTFSSYAMSWVRQAPGKGLEWVSAISASGGSTYYADSVKGRFTISRDNSKNTLYLQMNSLRAEDTAVYYCARLHMTGTASSGMDVWGQGTTVTVSS VL: DIVMTQSPDSLAVSLGERATINCKSSQSVLYSSNNKNYLAWYQQKPGQAPRLLIYGASSRATGIPDRFSGSGSGTDFTLTISRLEPEDFAVYYCQQDYSSPLTFGGGTKVEIK , same question.
1.04
